target: RSV ribonucleoprotein (RNP) complexes (Human respiratory syncytial virus A); construct: The supernatant (S3) fraction, containing the enriched RSV RNP complexes, was collected; endogenous in cells; detergent-extracted S3 fraction (crude RNP); assay: RSV RNP assay (inhibition of RSV RNP transcription); details: crude RSV RNP complexes, 90 minute incubation at 30° C., total radiolabled transcripts reduced by 50%
Sequence (P28887 whole entry): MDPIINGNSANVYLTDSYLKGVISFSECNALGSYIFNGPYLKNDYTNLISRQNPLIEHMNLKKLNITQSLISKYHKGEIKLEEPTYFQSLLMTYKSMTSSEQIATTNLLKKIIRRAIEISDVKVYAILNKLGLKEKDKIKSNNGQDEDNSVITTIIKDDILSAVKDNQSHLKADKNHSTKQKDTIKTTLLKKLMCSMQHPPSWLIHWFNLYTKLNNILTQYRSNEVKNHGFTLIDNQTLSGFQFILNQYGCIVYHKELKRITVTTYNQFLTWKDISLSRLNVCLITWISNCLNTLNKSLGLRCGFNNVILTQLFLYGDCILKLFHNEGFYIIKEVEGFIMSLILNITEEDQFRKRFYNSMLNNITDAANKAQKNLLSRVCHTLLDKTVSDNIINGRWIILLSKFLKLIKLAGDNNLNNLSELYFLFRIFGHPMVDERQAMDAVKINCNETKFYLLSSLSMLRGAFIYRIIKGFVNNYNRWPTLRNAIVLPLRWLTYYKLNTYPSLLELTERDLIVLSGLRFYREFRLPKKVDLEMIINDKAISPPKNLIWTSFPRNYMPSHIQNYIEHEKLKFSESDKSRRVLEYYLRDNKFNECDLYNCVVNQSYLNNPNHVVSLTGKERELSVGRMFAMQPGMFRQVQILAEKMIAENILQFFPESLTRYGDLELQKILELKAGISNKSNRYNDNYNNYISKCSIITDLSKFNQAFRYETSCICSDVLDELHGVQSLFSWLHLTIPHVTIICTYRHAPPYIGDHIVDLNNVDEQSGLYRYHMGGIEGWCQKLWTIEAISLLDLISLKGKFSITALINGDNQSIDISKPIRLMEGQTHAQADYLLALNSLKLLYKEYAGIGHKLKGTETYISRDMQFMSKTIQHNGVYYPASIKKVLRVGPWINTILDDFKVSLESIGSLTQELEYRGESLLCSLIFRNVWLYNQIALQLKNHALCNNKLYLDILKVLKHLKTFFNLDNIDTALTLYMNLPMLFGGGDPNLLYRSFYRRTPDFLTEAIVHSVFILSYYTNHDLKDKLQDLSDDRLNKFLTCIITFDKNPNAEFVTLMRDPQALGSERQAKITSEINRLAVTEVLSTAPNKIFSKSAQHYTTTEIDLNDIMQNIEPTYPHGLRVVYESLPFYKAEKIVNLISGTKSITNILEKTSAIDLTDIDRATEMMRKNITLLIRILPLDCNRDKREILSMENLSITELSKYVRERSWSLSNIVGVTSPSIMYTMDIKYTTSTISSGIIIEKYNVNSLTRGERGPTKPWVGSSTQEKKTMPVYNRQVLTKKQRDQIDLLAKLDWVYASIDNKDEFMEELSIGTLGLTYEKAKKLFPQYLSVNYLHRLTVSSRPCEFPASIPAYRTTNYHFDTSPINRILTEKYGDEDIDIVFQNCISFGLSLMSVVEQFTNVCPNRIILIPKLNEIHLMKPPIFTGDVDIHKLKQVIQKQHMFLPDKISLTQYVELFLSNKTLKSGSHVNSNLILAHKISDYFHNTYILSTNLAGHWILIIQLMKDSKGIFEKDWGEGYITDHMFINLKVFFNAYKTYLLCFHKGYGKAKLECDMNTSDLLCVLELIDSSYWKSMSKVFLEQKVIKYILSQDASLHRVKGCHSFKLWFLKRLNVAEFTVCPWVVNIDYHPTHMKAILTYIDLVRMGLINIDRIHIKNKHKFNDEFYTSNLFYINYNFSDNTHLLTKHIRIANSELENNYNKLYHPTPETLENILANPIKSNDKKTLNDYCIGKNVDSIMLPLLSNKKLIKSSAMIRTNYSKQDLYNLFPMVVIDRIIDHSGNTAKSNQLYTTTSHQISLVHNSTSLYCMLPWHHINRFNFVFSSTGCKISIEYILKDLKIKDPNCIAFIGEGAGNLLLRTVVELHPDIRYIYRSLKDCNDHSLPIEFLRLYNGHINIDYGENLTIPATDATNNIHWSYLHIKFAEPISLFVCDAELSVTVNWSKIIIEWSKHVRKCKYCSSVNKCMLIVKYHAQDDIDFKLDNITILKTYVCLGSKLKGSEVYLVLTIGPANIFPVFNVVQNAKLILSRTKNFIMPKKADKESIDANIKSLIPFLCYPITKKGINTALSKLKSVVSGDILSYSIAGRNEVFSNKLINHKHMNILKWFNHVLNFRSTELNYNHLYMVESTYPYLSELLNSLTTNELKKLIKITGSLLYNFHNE
Sequence (P03421 whole entry, further chain): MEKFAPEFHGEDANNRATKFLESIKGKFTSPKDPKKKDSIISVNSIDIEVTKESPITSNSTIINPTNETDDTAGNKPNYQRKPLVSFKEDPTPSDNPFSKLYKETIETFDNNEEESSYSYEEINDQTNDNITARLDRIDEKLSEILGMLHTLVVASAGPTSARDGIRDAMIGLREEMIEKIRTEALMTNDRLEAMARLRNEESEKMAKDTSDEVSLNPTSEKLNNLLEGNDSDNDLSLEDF
Parameter IC50: see the listing below.
observation.type: IC50

line.notation	observation.type	value
[N-]=[N+]=N[C@]1(COP(=O)(O)OP(=O)(O)OP(=O)(O)O)O[C@@H](c2csc3c(N)ncnc23)[C@H](Cl)[C@@H]1O	IC50	200 nM
N#C[C@]1(COP(=O)(O)OP(=O)(O)OP(=O)(O)O)O[C@@H](c2csc3c(N)ncnc23)[C@H](O)[C@@H]1O	IC50	36 nM
N#C[C@]1(COP(=O)(O)OP(=O)(O)OP(=O)(O)O)O[C@@H](c2csc3c(N)ncnc23)[C@H](F)[C@@H]1O	IC50	42 nM
[N-]=[N+]=N[C@]1(COP(=O)(O)OP(=O)(O)OP(=O)(O)O)O[C@@H](c2csc3c(N)ncnc23)[C@H](F)[C@@H]1O	IC50	76 nM
